tested on: Caco-2 cells; assay: Caco-2 permeability assay; details: 10 μM, HBSS pH 7.4, 37° C., 2 h
readout label: Caco2 B → A (nm/s)
Expressed in nm/s, but write only the number.

Field: example entries. Status: answers known.
smiles data | assay system | Caco2 B → A / nm/s
CC(C)(C)c1ccc(-c2nc3c(F)c(F)ccc3[nH]2)cc1 | Caco-2 cells | 9.94
CC(C)(C)c1cccc(-c2nc3ccccc3[nH]2)c1 | Caco-2 cells | 30.9

// below: Caco2 B → A requested for another compound
Exercise: I am curious: what Caco2 B → A value has been reported for CC(C)(C)c1ccc(-c2nc3cnccc3[nH]2)cc1 ?
Solution: 57.1
